Target: HLA-B*07:02
Experiment: IEDB peptide-MHC binding, purified MHC/direct/fluorescence; filed as Kd, often an IC50 or EC50 that approximates it; bounds were set here for any values at or beyond the usual limits of such assays
Conditions: source organism: Vibrio parahaemolyticus
Quantity measured: Kd

# return Kd of `VFMDNAFKK` (system: HLA-B*07:02)
≥ 20 µM

# return Kd of `QYDDLHKKF` (system: HLA-B*07:02)
≥ 20 µM

# return Kd of `ASEELMDKY` (system: HLA-B*07:02)
≥ 20 µM

---

Molecular target: HLA-B*51:01
Test: IEDB peptide-MHC binding, purified MHC/competitive/radioactivity; filed as Kd, often an IC50 or EC50 that approximates it; bounds were set here for any values at or beyond the usual limits of such assays
Conditions: source organism: Dengue virus 3 Martinique/1243/1999
Quantity measured: pKd
# log scale: pKd equals minus log10 of the concentration in mol/L

// Input: `LPETMETLLL` . Output its pKd only.
5.93

// Input: `LPVCQSSSM` . Output its pKd only.
5.56

---

Molecular target: HLA-A*01:01
Assay: IEDB peptide-MHC binding, purified MHC/competitive/radioactivity; filed as Kd, often an IC50 or EC50 that approximates it; bounds were set here for any values at or beyond the usual limits of such assays
Settings: source organism: Dengue virus 2 Jamaica/1409/1983
Quantity measured: Kd (µM)
Field: numeric (µM). Do not append units.

// Input: `ATVTGGIFLF` . Output its Kd only.
2.03

---

Biological target: HLA-A*26:01
Experiment: IEDB peptide-MHC binding, purified MHC/direct/fluorescence; filed as Kd, often an IC50 or EC50 that approximates it; bounds were set here for any values at or beyond the usual limits of such assays
Conditions: source organism: Coxiella burnetii Q321
Quantity measured: Kd

// Input: `DGAEGINPY` . Output its Kd only.
≥ 20 µM

---

Target: HLA-B*08:01
Assay: IEDB peptide-MHC binding, purified MHC/direct/fluorescence; filed as Kd, often an IC50 or EC50 that approximates it; bounds were set here for any values at or beyond the usual limits of such assays
Conditions: source organism: Vibrio parahaemolyticus RIMD 2210633
Quantity measured: Kd

// Input: `VFMDNAFKK` . Output its Kd only.
≥ 20 µM

---

Target: HLA-A*23:01
Test: IEDB peptide-MHC binding, purified MHC/competitive/radioactivity; filed as Kd, often an IC50 or EC50 that approximates it; bounds were set here for any values at or beyond the usual limits of such assays
Details: source organism: Mammarenavirus guanaritoense
I'd appreciate it if you could supply Kd values for the items below.
Field: numeric (µM). Do not append units.

// Input: `FLDGVNLVA` . Output its Kd only.
8.81

// Input: `LWPFIRINNL` . Output its Kd only.
0.117

---

Biological target: HLA-A*02:03
Assay: IEDB peptide-MHC binding, purified MHC/competitive/radioactivity; filed as Kd, often an IC50 or EC50 that approximates it; bounds were set here for any values at or beyond the usual limits of such assays
Conditions: source organism: Dengue virus 1 Brazil/97-11/1997
Quantity measured: Kd (µM)
Field: numeric (µM). Do not append units.

# return Kd of `LLMLVTPSMA` (system: HLA-A*02:03)
0.0236

# return Kd of `MVSAGSGEV` (system: HLA-A*02:03)
0.0946

# return Kd of `LLFMILTVAA` (system: HLA-A*02:03)
0.468

# return Kd of `TLYAVATTVI` (system: HLA-A*02:03)
0.195

---

I'd appreciate it if you could supply Kd values for the items below.
Target: HLA-A*30:02
Assay: IEDB peptide-MHC binding, purified MHC/competitive/radioactivity; filed as Kd, often an IC50 or EC50 that approximates it; bounds were set here for any values at or beyond the usual limits of such assays
Details: source organism: Mammarenavirus guanaritoense
Field: numeric (nM). Do not append units.

// Input: `FLDGVNLVA` . Output its Kd only.
17700

// Input: `HTNFESFTV` . Output its Kd only.
971

// Input: `RVGLYGLLFY` . Output its Kd only.
36.6

// Input: `HLSRTVVYSY` . Output its Kd only.
63.8

---

Molecular target: HLA-B*14:02
Assay: IEDB peptide-MHC binding, purified MHC/direct/fluorescence; filed as Kd, often an IC50 or EC50 that approximates it; bounds were set here for any values at or beyond the usual limits of such assays
Conditions: source organism: Homo sapiens
Quantity measured: pKd
# log scale: pKd equals minus log10 of the concentration in mol/L

// Input: `DELNHASI` . Output its pKd only.
6.79

---

Target: HLA-A*30:01
Test: IEDB peptide-MHC binding, purified MHC/competitive/radioactivity; filed as Kd, often an IC50 or EC50 that approximates it; bounds were set here for any values at or beyond the usual limits of such assays
Conditions: source organism: Vaccinia virus
I'd appreciate it if you could supply Kd values for the items below.

// Input: `KTKIDIIFA` . Output its Kd only.
10 nM

// Input: `MALIVSIFK` . Output its Kd only.
896 nM

---

I'd appreciate it if you could supply Kd values for the items below.
Target: HLA-B*15:01
Assay: IEDB peptide-MHC binding, purified MHC/competitive/radioactivity; filed as Kd, often an IC50 or EC50 that approximates it; bounds were set here for any values at or beyond the usual limits of such assays
Conditions: source organism: Dengue virus 4 Philippines/H241/1956
Field: numeric (nM). Do not append units.

// Input: `AQGKPTLDF` . Output its Kd only.
3.09

// Input: `ALLAGFMAY` . Output its Kd only.
1.14

// Input: `TVIDLEPISY` . Output its Kd only.
1.36

---

Molecular target: HLA-C*03:03
Experiment: IEDB peptide-MHC binding, purified MHC/direct/fluorescence; filed as Kd, often an IC50 or EC50 that approximates it; bounds were set here for any values at or beyond the usual limits of such assays
Settings: source organism: Vaccinia virus WR
pKd: −log10 of the molar value.
Quantity measured: pKd

// Input: `FLHESDPMV` . Output its pKd only.
≤ 4.70

---

Molecular target: HLA-B*40:02
Assay: IEDB peptide-MHC binding, purified MHC/competitive/fluorescence; bounds were set here for any values at or beyond the usual limits of such assays
Conditions: source organism: Monodelphis domestica
Quantity measured: IC50

// Input: `YSLEYFQFVKK` . Output its IC50 only.
≥ 20 µM

---

Target: HLA-B*18:01
Assay: IEDB peptide-MHC binding, purified MHC/direct/fluorescence; filed as Kd, often an IC50 or EC50 that approximates it; bounds were set here for any values at or beyond the usual limits of such assays
Conditions: source organism: Vibrio vulnificus
Quantity measured: Kd

// Input: `GLKELGDWV` . Output its Kd only.
≥ 20 µM

---

Biological target: HLA-A*03:01
Test: IEDB peptide-MHC binding, purified MHC/direct/fluorescence; filed as Kd, often an IC50 or EC50 that approximates it; bounds were set here for any values at or beyond the usual limits of such assays
Conditions: source organism: Francisella tularensis subsp. tularensis FSC198
Quantity measured: Kd

// Input: `SFSSGWSPR` . Output its Kd only.
≥ 20 µM

---

Target: HLA-B*44:02
Assay: IEDB peptide-MHC binding, purified MHC/direct/fluorescence; filed as Kd, often an IC50 or EC50 that approximates it; bounds were set here for any values at or beyond the usual limits of such assays
Settings: source organism: Bacillus anthracis
Quantity measured: Kd

// Input: `FIFGKMGAG` . Output its Kd only.
≥ 20 µM

---

Target: HLA-B*35:01
Experiment: IEDB peptide-MHC binding, purified MHC/direct/fluorescence; filed as Kd, often an IC50 or EC50 that approximates it; bounds were set here for any values at or beyond the usual limits of such assays
Conditions: source organism: Salmonella enterica subsp. enterica serovar Typhi
Quantity measured: Kd (nM)
Field: numeric (nM). Do not append units.

// Input: `LPLIVDTAA` . Output its Kd only.
6.36

---

Target: HLA-A*11:01
Test: IEDB peptide-MHC binding, purified MHC/direct/fluorescence; filed as Kd, often an IC50 or EC50 that approximates it; bounds were set here for any values at or beyond the usual limits of such assays
Settings: source organism: Bacillus anthracis
Quantity measured: Kd

// Input: `FIFGKMGAG` . Output its Kd only.
≥ 20 µM

---

Target: HLA-A*11:01
Assay: IEDB peptide-MHC binding, purified MHC/competitive/radioactivity; filed as Kd, often an IC50 or EC50 that approximates it; bounds were set here for any values at or beyond the usual limits of such assays
Conditions: source organism: Vaccinia virus WR
Quantity measured: Kd (nM)
Field: numeric (nM). Do not append units.

// Input: `TIDNPTKYIR` . Output its Kd only.
2600

// Input: `ITSTKTIEY` . Output its Kd only.
434

// Input: `CVDIFTEGK` . Output its Kd only.
78.3

// Input: `DILSIIDAK` . Output its Kd only.
428

// Input: `NIVTDLENR` . Output its Kd only.
8740

// Input: `FSSLRREHIK` . Output its Kd only.
277

// Input: `CIRNASKFVY` . Output its Kd only.
19900

// Input: `ILEYLYIMR` . Output its Kd only.
1090

// Input: `HVCNATDFWR` . Output its Kd only.
450

// Input: `LLVKMINHLK` . Output its Kd only.
400

// Input: `WLYYNQDVQR` . Output its Kd only.
7910

// Input: `VVKDDPDHY` . Output its Kd only.
1800

// Input: `DLLFNEKLK` . Output its Kd only.
188

// Input: `ISAEKTPIR` . Output its Kd only.
6020

// Input: `SMTIREFPRK` . Output its Kd only.
3.18

// Input: `TVENNIDFLK` . Output its Kd only.
69.9

// Input: `NIQKITVFNK` . Output its Kd only.
5.8

// Input: `GSSKGNCAIK` . Output its Kd only.
26.1
